test system: E. coli ATCC 25922; assay: Enhancement of erythromycin action against E. coli; assay type: cell-based, Escherichia coli; details: erythromycin at 10.9 µM
Eryth/E. c: concentration required to restore erythromycin activity (combination MIC) less than 100 µM is label 1; Eryth/E. c: concentration required to restore erythromycin activity (combination MIC) greater than or equal to 100 µM is label 0.

Input COc1cccc2c(CC(=O)NCCCNCCCCCCCCCCCCNCCCNC(=O)Cc3c[nH]c4c(OC)cccc34)c[nH]c12.O=C(O)C(F)(F)F.O=C(O)C(F)(F)F [Compound 19f] ; condition: Eryth/E. c: concentration required to restore erythromycin activity (combination MIC) strictly below 100 µM. Does it hold?
label 0

Input O=C(Cc1c[nH]c2c(F)cccc12)NCCCNCCCCNCCCNC(=O)Cc1c[nH]c2c(F)cccc12.O=C(O)C(F)(F)F.O=C(O)C(F)(F)F [Compound 18a] ; condition: Eryth/E. c: concentration required to restore erythromycin activity (combination MIC) strictly below 100 µM. Does it hold?
label 1

Input COc1cccc2c(CC(=O)NCCCNCCCCCCCNCCCNC(=O)Cc3c[nH]c4c(OC)cccc34)c[nH]c12.O=C(O)C(F)(F)F.O=C(O)C(F)(F)F [Compound 19c] ; condition: Eryth/E. c: concentration required to restore erythromycin activity (combination MIC) strictly below 100 µM. Does it hold?
label 0

Next:
Input COc1cccc2c(CC(=O)NCCCNCCCCCCCCCCNCCCNC(=O)Cc3c[nH]c4c(OC)cccc34)c[nH]c12.O=C(O)C(F)(F)F.O=C(O)C(F)(F)F [Compound 19e] ; condition: Eryth/E. c: concentration required to restore erythromycin activity (combination MIC) strictly below 100 µM. Does it hold?
label 0

Input Cc1cccc2c(CC(=O)NCCCNCCCCCCNCCCNC(=O)Cc3c[nH]c4c(C)cccc34)c[nH]c12.O=C(O)C(F)(F)F.O=C(O)C(F)(F)F [Compound 20b] ; condition: Eryth/E. c: concentration required to restore erythromycin activity (combination MIC) strictly below 100 µM. Does it hold?
label 1
